// provenance: ChEMBL document CHEMBL4414628

ASSAYED_TARGET: Histone-lysine N-methyltransferase 2A (Homo sapiens, UniProt Q03164)
Sequence (Q03164 1-2718 limits assumed): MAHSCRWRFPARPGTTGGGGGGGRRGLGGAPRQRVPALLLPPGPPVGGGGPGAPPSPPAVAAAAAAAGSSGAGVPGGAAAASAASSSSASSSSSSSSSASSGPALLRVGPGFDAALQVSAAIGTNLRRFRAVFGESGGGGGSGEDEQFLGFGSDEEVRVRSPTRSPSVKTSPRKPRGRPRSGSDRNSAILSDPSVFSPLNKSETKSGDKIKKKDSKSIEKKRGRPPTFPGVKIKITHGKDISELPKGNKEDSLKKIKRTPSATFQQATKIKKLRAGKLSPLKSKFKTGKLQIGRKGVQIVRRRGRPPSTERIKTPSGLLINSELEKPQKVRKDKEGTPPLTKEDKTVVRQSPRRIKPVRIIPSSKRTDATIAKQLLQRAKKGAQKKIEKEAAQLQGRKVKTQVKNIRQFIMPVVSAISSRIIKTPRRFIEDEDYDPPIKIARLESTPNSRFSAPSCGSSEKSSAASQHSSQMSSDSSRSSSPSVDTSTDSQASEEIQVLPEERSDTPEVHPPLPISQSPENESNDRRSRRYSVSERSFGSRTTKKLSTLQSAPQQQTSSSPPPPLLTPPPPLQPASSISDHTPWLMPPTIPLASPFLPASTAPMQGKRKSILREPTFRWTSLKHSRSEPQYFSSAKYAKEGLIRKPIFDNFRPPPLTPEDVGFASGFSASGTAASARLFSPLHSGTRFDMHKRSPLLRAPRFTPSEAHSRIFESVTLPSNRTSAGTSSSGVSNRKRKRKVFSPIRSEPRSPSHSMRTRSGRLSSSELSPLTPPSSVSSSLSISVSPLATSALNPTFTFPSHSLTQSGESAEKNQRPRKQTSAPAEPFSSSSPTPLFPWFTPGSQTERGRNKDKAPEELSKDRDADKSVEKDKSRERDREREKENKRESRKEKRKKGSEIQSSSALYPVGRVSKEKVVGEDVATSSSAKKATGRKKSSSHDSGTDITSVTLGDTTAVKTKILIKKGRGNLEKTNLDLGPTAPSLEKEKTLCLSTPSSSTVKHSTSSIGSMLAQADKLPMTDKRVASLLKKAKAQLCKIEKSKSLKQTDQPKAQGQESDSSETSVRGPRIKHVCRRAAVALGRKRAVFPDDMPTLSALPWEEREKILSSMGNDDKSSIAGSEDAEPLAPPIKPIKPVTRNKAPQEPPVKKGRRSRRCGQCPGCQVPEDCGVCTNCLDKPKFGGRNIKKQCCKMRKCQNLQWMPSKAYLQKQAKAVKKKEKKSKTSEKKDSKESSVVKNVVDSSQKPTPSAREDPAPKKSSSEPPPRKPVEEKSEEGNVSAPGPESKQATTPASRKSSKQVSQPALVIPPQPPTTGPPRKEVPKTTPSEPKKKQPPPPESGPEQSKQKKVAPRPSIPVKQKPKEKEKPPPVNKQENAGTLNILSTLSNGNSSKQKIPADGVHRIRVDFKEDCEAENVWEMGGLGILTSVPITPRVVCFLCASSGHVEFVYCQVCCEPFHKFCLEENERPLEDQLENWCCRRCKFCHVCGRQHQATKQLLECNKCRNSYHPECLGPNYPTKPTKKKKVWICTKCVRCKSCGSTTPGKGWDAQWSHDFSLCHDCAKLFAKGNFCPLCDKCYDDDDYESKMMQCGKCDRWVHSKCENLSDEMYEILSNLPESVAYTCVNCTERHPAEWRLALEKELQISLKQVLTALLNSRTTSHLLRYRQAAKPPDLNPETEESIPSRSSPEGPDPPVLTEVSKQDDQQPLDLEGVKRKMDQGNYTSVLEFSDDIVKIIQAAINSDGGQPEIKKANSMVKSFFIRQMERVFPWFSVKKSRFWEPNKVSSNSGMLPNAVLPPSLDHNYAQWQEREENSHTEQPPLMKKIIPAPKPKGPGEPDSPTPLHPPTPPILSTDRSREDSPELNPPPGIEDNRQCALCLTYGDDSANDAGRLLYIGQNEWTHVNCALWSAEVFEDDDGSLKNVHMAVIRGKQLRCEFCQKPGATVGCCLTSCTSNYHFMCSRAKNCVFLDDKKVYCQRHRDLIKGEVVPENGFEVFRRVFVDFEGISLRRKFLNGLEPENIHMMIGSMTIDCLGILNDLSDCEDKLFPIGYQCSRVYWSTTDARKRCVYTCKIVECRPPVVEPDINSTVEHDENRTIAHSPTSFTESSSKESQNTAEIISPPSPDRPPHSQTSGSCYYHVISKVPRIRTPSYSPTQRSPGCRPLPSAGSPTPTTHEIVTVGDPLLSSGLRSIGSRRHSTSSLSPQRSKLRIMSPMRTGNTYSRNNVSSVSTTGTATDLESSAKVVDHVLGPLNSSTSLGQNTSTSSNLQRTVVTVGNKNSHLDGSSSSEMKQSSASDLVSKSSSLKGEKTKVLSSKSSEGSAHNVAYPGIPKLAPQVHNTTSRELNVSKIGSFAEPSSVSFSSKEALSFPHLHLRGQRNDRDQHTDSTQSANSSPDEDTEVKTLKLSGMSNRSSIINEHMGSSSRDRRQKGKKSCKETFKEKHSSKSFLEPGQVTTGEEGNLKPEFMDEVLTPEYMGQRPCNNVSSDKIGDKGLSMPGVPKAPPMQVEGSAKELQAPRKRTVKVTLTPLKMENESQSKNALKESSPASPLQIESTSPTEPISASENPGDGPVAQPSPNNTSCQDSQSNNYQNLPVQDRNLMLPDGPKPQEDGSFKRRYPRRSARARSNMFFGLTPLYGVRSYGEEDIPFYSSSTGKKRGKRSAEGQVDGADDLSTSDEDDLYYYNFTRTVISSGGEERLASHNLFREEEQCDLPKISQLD
Sequence (Q03164 2719-3969 limits assumed): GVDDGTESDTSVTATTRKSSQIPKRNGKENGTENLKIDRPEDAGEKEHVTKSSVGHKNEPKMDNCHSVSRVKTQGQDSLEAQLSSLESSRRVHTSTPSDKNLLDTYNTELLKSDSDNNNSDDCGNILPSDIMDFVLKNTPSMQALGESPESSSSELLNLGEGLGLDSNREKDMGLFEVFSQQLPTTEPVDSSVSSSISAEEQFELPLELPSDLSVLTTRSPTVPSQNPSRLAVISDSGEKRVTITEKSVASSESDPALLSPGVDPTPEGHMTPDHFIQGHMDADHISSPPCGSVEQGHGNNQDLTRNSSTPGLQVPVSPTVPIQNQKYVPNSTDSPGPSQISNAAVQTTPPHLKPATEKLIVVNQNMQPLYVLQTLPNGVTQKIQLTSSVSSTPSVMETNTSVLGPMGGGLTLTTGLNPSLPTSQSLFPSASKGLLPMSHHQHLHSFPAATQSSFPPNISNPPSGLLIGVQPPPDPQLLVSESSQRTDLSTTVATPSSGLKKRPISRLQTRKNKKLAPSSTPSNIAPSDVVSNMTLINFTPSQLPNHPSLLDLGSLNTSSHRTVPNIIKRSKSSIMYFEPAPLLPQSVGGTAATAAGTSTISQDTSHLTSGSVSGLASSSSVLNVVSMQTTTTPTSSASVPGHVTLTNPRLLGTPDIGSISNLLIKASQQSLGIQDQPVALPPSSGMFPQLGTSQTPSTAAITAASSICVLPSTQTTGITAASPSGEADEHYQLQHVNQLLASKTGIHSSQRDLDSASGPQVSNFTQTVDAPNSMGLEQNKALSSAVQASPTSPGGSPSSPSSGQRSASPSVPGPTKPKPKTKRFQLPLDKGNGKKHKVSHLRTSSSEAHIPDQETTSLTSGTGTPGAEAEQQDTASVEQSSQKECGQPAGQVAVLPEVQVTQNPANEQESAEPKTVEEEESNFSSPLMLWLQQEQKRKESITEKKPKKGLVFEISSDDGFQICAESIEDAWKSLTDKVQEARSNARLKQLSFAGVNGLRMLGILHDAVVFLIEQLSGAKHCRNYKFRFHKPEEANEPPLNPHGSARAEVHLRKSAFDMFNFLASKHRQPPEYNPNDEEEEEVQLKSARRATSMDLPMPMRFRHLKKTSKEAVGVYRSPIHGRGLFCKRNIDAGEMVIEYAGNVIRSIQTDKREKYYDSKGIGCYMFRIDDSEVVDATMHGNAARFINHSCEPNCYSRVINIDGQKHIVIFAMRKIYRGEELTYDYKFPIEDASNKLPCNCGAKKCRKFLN
ASSAY: Inhibition of human recombinant MLL1 using [3H]S-adenosyl-methionine as substrate
MEASURE_NAME: pIC50
pIC50 (log units): -log10 of the concentration in mol/L.

input: Fill in the blank: the reported pIC50 of CN1C(=O)[C@]23SS[C@@]1(C)C(=O)N2[C@H]1Nc2ccccc2[C@@]1([C@@]12c4ccccc4N[C@@H]1N1C(=O)[C@]4(C)SS[C@]1(C(=O)N4C)[C@H]2O)[C@@H]3O is ____.
output: 6.10
